Just for reference, ChEMBL document CHEMBL4340580 is where these values come from.

Test: Toxicity in mouse RAW264.7 cells assessed as cell viability at 10 uM by MTT assay
Assay type: cell-based
Details: read-out: Activity
Rule: measured viability at 10 µM below 70% gets t; anything equal to or greater than 70% gets f.

INSERT INTO assay_data (chem_smiles, label) VALUES
  ('COc1cc(-c2coc3cc4c(c(O)c3c2=O)C=CC(C)(C)O4)c(OC)cc1OCC=C(C)C', 't'),
  ('CC(C)=CCc1c2c(c(O)c3c(=O)c(-c4ccc(O)cc4)coc13)C=CC(C)(C)O2', 'f'),
  ('CC(C)=CCOc1ccc(-c2coc3cc(OCC=C(C)C)cc(O)c3c2=O)cc1', 'f'),
  ('CC(C)=CCc1c2c(c(O)c3c(=O)c(-c4ccc(O)cc4O)coc13)C=CC(C)(C)O2', 'f'),
  ('COc1cc(O)c2c(=O)c(-c3ccc(OCC=C(C)C)cc3)coc2c1', 't'),
  ('CC(C)=CCc1c2c(c(O)c3c(=O)c4c(oc5cc(O)ccc54)oc13)C=CC(C)(C)O2', 'f'),
  ('C=CC(C)(C)c1cc(-c2coc3cc4c(c(O)c3c2=O)C=CC(C)(C)O4)ccc1O', 't'),
  ('CC(C)=CCc1c(O)c(CC=C(C)C)c2occ(-c3ccc(O)c(O)c3)c(=O)c2c1O', 'f'),
  ('CC(C)=CCOc1ccc2c(c1)O[C@@H]1Oc3cc4c(c(O)c3C(=O)[C@]21O)C=CC(C)(C)O4', 't'),
  ('COc1c2c(cc3c1C(=O)[C@]1(O)c4ccc(OCC=C(C)C)cc4O[C@@H]1O3)OC(C)(C)C=C2', 't'),
  ('CC(C)=CCC1=C(O)c2c(occ(-c3ccc(O)cc3O)c2=O)C(CC=C(C)C)(CC=C(C)C)C1=O', 'f'),
  ('COc1c2c(cc3occ(-c4ccc(OCC=C(C)C)c(O)c4)c(=O)c13)OC(C)(C)C=C2', 't');

====

System: Pseudomonas aeruginosa
Experiment: Antibacterial activity against Pseudomonas aeruginosa by CLSI protocol based method
Type: functional
The source made the active and inactive calls. The rule behind the calls is not given here.
attribute measured: MIC

INSERT INTO measurements (chem_smiles, assay_system, result) VALUES
  ('C=CC(C)(C)c1cc(-c2coc3cc4c(c(OC)c3c2=O)C=CC(C)(C)O4)c(O)cc1O', 'Pseudomonas aeruginosa', '128 µg/mL'),
  ('COc1cc(O)c2c(=O)c(-c3ccc(OCC=C(C)C)cc3)coc2c1', 'Pseudomonas aeruginosa', 'inactive'),
  ('CC(C)=CCc1c(O)c(CC=C(C)C)c2occ(-c3ccc(O)c(O)c3)c(=O)c2c1O', 'Pseudomonas aeruginosa', '128 µg/mL'),
  ('COc1c2c(cc3c1C(=O)[C@]1(O)c4ccc(OCC=C(C)C)cc4O[C@@H]1O3)OC(C)(C)C=C2', 'Pseudomonas aeruginosa', 'inactive');
